# target_of_assay: human TAS1R2-I234V/TAS1R3-WT (Homo sapiens, UniProt Q7RTX0+Q8TE23, I234V)
# Construct: expressed in transfected cells; host or cells: HEK293T-Gα16gust44
# Sequence (Q8TE23 20-839 I234V): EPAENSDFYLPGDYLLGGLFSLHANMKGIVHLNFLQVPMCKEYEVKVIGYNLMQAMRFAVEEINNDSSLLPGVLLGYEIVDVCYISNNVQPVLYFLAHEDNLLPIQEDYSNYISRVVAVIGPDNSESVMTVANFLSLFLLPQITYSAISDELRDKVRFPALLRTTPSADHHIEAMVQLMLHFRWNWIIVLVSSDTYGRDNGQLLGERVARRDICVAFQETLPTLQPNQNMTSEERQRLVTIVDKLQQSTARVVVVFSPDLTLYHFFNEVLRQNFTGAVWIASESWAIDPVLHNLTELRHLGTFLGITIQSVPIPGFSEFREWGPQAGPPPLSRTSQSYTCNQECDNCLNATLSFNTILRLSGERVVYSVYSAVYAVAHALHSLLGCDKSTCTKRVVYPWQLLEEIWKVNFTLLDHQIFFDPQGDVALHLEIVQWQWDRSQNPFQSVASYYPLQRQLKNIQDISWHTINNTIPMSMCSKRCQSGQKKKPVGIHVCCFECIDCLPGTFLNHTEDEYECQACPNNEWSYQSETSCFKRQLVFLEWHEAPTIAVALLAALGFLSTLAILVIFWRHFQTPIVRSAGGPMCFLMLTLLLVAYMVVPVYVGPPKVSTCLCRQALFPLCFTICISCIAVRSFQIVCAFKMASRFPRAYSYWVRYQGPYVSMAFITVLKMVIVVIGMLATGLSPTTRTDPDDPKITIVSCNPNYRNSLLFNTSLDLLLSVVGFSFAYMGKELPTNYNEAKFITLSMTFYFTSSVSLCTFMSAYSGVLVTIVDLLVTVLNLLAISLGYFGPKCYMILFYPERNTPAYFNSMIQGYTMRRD
# Sequence (Q7RTX0 21-852): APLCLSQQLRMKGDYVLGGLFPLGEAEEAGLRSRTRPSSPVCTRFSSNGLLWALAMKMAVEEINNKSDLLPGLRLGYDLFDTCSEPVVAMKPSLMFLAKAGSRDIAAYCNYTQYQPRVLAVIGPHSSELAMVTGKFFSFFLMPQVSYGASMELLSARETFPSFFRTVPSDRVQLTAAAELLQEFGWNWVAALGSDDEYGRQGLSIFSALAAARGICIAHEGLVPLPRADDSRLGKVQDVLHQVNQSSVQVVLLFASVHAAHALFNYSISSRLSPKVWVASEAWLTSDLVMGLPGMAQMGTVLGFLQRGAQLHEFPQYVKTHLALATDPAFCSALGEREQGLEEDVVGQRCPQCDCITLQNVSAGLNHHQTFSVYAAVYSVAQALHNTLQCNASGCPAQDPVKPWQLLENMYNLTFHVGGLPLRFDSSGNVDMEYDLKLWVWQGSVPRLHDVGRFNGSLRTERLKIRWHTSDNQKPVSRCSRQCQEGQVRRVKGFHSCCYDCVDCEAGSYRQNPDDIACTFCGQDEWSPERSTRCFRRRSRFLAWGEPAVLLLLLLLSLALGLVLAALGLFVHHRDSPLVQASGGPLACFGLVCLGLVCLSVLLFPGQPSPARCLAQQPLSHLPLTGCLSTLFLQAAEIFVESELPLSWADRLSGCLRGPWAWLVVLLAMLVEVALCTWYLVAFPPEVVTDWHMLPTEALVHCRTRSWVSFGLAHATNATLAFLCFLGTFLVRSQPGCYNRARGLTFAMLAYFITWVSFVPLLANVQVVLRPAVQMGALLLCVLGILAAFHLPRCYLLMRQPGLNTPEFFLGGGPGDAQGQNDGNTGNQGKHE
# protocol_details: Calcium mobilisation assay, TAS1R2 variant I234V with TAS1R3-WT
# Format: cell-based
# assay_conditions: maximal signal amplitude
# From the text: The coding sequences for TAS1R2 and TAS1R3 were commercially synthesised, and the human codon was optimised for expression in human cells. […] The HEK293T cells were kindly provided by Jay P. Slack (Givaudan Flavors Corporation; Cincinnati, OH, USA). […] The Ca^2+ changes were expressed as fractional changes in fluorescent light intensity: ΔF/F = (F − F0)/F0, where F was the fluorescent light intensity at each point, and F0 was the value of emitted fluorescent light prior to stimulus application. […]

compound	Max ΔF/F0
C=C1C[C@@]23CC[C@H]4[C@@](C)(CCC[C@@]4(C)C(=O)O[C@@H]4O[C@H](CO)[C@@H](O)[C@H](O[C@@H]5O[C@H](CO)[C@@H](O)[C@H](O)[C@H]5O)[C@H]4O[C@@H]4O[C@H](CO)[C@@H](O)[C@H](O)[C@H]4O)[C@@H]2CC[C@]1(O[C@@H]1O[C@H](CO)[C@@H](O)[C@H](O[C@@H]2O[C@H](CO)[C@@H](O)[C@H](O)[C@H]2O)[C@H]1O[C@@H]1O[C@H](CO)[C@@H](O)[C@H](O)[C@H]1O)C3 [Rebaudioside M, rebaudioside M]	1.14

Origin of the recorded values: paper PMC11945486
